FYI, the data here is from patent US7759345B2.

Tested on: SK-MEL-28
Assay: Inhibition of cells growth by colorimetric assay (SRB), SK-MEL-28
Format: cell-based
Conditions: Homo sapiens, SK-MEL-28, 48 h, SRB assay, 48 hours exposure; read-out: MEL-28 GI50

>  <COMPOUND>
COc1cc2c(cc1O)CCN[C@]21CS[C@@H]2c3c(OC(=O)CCCCC4SCC5NC(=O)NC54)c(C)c4c(c3[C@H](COC1=O)N1C2[C@H]2c3c(cc(C)c(OC)c3O)C[C@@H]([C@@H]1O)N2C)OCO4 (stereo partly drawn)

>  <ASSAYED_TARGET>
SK-MEL-28

>  <QUANTITY_UNIT>
nM

>  <GI50>
5.65

$$$$
>  <COMPOUND>
COc1cc2c(cc1O)CCN(C)[C@]21CS[C@@H]2c3c(OC(C)=O)c(C)c4c(c3[C@H](COC1=O)N1C2[C@@H]2N[C@@H](Cc3cc(C)c(OC)c(O)c32)[C@@H]1C#N)OCO4 (stereo partly drawn)

>  <ASSAYED_TARGET>
SK-MEL-28

>  <QUANTITY_UNIT>
nM

>  <GI50>
0.0649

$$$$
>  <COMPOUND>
COc1cc2c(cc1O)CCN(C)[C@]21CS[C@@H]2c3c(OC(C)=O)c(C)c4c(c3[C@H](COC1=O)N1C2[C@@H]2N[C@@H](Cc3cc(C)c(OC)c(O)c32)[C@@H]1O)OCO4 (stereo partly drawn)

>  <ASSAYED_TARGET>
SK-MEL-28

>  <QUANTITY_UNIT>
nM

>  <GI50>
0.537

$$$$

====

System: DU-145
Test: Inhibition of cells growth by colorimetric assay (SRB), DU-145
Type: cell-based
Conditions: DU-145; SRB, 48 hours exposure; read-out: LC50 DU-145
READOUT_KIND: CC50

>  <COMPOUND>
C=COC(=O)Oc1cc2c(cc1OC)[C@@]1(CS[C@@H]3c4c(OC(C)=O)c(C)c5c(c4[C@H](COC1=O)N1C3[C@H]3c4c(cc(C)c(OC)c4O)C[C@@H]([C@@H]1O)N3C)OCO5)NCC2 (stereo partly shown) [Compound 75]

>  <READOUT_KIND>
CC50

>  <RECORDED_MEASUREMENT>
8.33 µM

$$$$

====

System: Myelo
Quick reference: Toxicity Data Myelo of the listed items.

>  <COMPOUND>
COc1cc2c(cc1OC(=O)OC(C)(C)C)CCN[C@]21CS[C@@H]2c3c(OC(=O)OC(C)(C)C)c(C)c4c(c3[C@H](COC1=O)N1C2[C@H]2c3c(cc(C)c(OC)c3O)C[C@@H]([C@@H]1O)N2C)OCO4 (stereo partly drawn) [Compound 173]

>  <ASSAYED_TARGET>
Myelo

>  <Toxicity Data Myelo>
4.98E-06

$$$$
>  <COMPOUND>
COc1cc2c(cc1OC(=O)/C=C/c1ccccc1)CCN[C@]21CS[C@@H]2c3c(OC(C)=O)c(C)c4c(c3[C@H](COC1=O)N1C2[C@H]2c3c(cc(C)c(OC)c3O)C[C@@H]([C@@H]1O)N2C)OCO4 (stereo partly drawn) [Compound 61]

>  <ASSAYED_TARGET>
Myelo

>  <Toxicity Data Myelo>
1.69E-08

$$$$
>  <COMPOUND>
C=COC(=O)Oc1cc2c(cc1OC)[C@@]1(CS[C@@H]3c4c(OC(C)=O)c(C)c5c(c4[C@H](COC1=O)N1C3[C@H]3c4c(cc(C)c(OC)c4OC(=O)OC=C)C[C@@H]([C@@H]1O)N3C)OCO5)NCC2 (stereo partly drawn) [Compound 92]

>  <ASSAYED_TARGET>
Myelo

>  <Toxicity Data Myelo>
1.92E-08

$$$$
>  <COMPOUND>
C=CCOc1cc2c(cc1OC)[C@@]1(CS[C@@H]3c4c(OC(C)=O)c(C)c5c(c4[C@H](COC1=O)N1C3[C@H]3c4c(cc(C)c(OC)c4O)C[C@@H]([C@@H]1O)N3C)OCO5)NCC2 (stereo partly drawn) [Compound 70]

>  <ASSAYED_TARGET>
Myelo

>  <Toxicity Data Myelo>
6.61E-08

$$$$
>  <COMPOUND>
COc1cc2c(cc1O)CCN[C@]21CS[C@@H]2c3c(OC(=O)CCCCC4SCC5NC(=O)NC54)c(C)c4c(c3[C@H](COC1=O)N1C2[C@H]2c3c(cc(C)c(OC)c3OC(=O)CCCCC3SCC5NC(=O)NC53)C[C@@H]([C@@H]1O)N2C)OCO4 (stereo partly drawn) [Compound 172]

>  <ASSAYED_TARGET>
Myelo

>  <Toxicity Data Myelo>
3.81E-07

$$$$
>  <COMPOUND>
C=COC(=O)Oc1cc2c(cc1OC)[C@@]1(CS[C@@H]3c4c(OC(C)=O)c(C)c5c(c4[C@H](COC1=O)N1C3[C@H]3c4c(cc(C)c(OC)c4OC(=O)OC=C)C[C@@H]([C@@H]1O)N3C)OCO5)N(C(=O)OC=C)CC2 (stereo partly drawn) [Compound 99]

>  <ASSAYED_TARGET>
Myelo

>  <Toxicity Data Myelo>
1.45E-07

$$$$
>  <COMPOUND>
COc1cc2c(cc1OC(=O)/C=C/c1ccccc1)CCN[C@]21CS[C@@H]2c3c(OC(C)=O)c(C)c4c(c3[C@H](COC1=O)N1C2[C@@H]2N[C@@H](Cc3cc(C)c(OC)c(O)c32)[C@@H]1O)OCO4 (stereo partly drawn) [Compound 212]

>  <ASSAYED_TARGET>
Myelo

>  <Toxicity Data Myelo>
8.58E-09

$$$$
>  <COMPOUND>
COc1cc2c(cc1OC(=O)OC(C)(C)C)CCN[C@]21CS[C@@H]2c3c(OC(=O)[C@H](C)NC(=O)OC(C)(C)C)c(C)c4c(c3[C@H](COC1=O)N1C2[C@H]2c3c(cc(C)c(OC)c3O)C[C@@H]([C@@H]1O)N2C)OCO4 (stereo partly drawn) [Compound 175]

>  <ASSAYED_TARGET>
Myelo

>  <Toxicity Data Myelo>
1.59E-08

$$$$
>  <COMPOUND>
COc1cc2c(cc1OC(C)=O)CCN[C@]21CS[C@@H]2c3c(OC(C)=O)c(C)c4c(c3[C@H](COC1=O)N1C2[C@H]2c3c(cc(C)c(OC)c3O)C[C@@H]([C@@H]1O)N2C)OCO4 (stereo partly drawn) [Compound 57]

>  <ASSAYED_TARGET>
Myelo

>  <Toxicity Data Myelo>
1.85E-08

$$$$
>  <COMPOUND>
COc1cc2c(cc1O)CCN[C@]21CS[C@@H]2c3c(OC(C)=O)c(C)c4c(c3[C@H](COC1=O)N1C2[C@H]2c3c(cc(C)c(OC)c3OC(=O)OC(C)(C)C)C[C@@H]([C@@H]1O)N2C)OCO4 (stereo partly drawn) [Compound 97]

>  <ASSAYED_TARGET>
Myelo

>  <Toxicity Data Myelo>
1.77E-08

$$$$
>  <COMPOUND>
COc1cc2c(cc1OC(=O)OC(C)(C)C)CCN[C@]21CS[C@@H]2c3c(OC(=O)OC(C)(C)C)c(C)c4c(c3[C@H](COC1=O)N1C2[C@H]2c3c(cc(C)c(OC)c3OC(=O)OC(C)(C)C)C[C@@H]([C@@H]1O)N2C)OCO4 (stereo partly drawn) [Compound 174]

>  <ASSAYED_TARGET>
Myelo

>  <Toxicity Data Myelo>
7.27E-08

$$$$
>  <COMPOUND>
CCOc1cc2c(cc1OC)[C@@]1(CS[C@@H]3c4c(OC(C)=O)c(C)c5c(c4[C@H](COC1=O)N1C3[C@H]3c4c(cc(C)c(OC)c4O)C[C@@H]([C@@H]1O)N3C)OCO5)NCC2 (stereo partly drawn) [Compound 68]

>  <ASSAYED_TARGET>
Myelo

>  <Toxicity Data Myelo>
1.89E-08

$$$$
>  <COMPOUND>
CCN1CCc2cc(O)c(OC)cc2[C@@]12CS[C@@H]1c3c(OC(C)=O)c(C)c4c(c3[C@H](COC2=O)N2C1[C@H]1c3c(cc(C)c(OC)c3O)C[C@@H]([C@@H]2O)N1C)OCO4 (stereo partly drawn) [Compound 94]

>  <ASSAYED_TARGET>
Myelo

>  <Toxicity Data Myelo>
1.13E-08

$$$$
>  <COMPOUND>
COc1cc2c(cc1O)CCN[C@]21CS[C@@H]2c3c(OC(=O)CCCCC4SCC5NC(=O)NC54)c(C)c4c(c3[C@H](COC1=O)N1C2[C@H]2c3c(cc(C)c(OC)c3O)C[C@@H]([C@@H]1O)N2C)OCO4 (stereo partly drawn) [Compound 171]

>  <ASSAYED_TARGET>
Myelo

>  <Toxicity Data Myelo>
1.37E-07

$$$$
>  <COMPOUND>
COc1cc2c(cc1OC(=O)OCc1ccccc1)CCN[C@]21CS[C@@H]2c3c(OC(C)=O)c(C)c4c(c3[C@H](COC1=O)N1C2[C@H]2c3c(cc(C)c(OC)c3O)C[C@@H]([C@@H]1O)N2C)OCO4 (stereo partly drawn) [Compound 65]

>  <ASSAYED_TARGET>
Myelo

>  <Toxicity Data Myelo>
1.70E-08

$$$$
>  <COMPOUND>
COc1cc2c(cc1O)CCN[C@]21CS[C@@H]2c3c(OC(=O)/C=C/c4ccccc4)c(C)c4c(c3[C@H](COC1=O)N1C2[C@H]2c3c(cc(C)c(OC)c3O)C[C@@H]([C@@H]1O)N2C)OCO4 (stereo partly drawn) [Compound 161]

>  <ASSAYED_TARGET>
Myelo

>  <Toxicity Data Myelo>
2.27E-08

$$$$
>  <COMPOUND>
COc1cc2c(cc1OC(=O)C(F)(F)F)CCN[C@]21CS[C@@H]2c3c(OC(C)=O)c(C)c4c(c3[C@H](COC1=O)N1C2[C@H]2c3c(cc(C)c(OC)c3O)C[C@@H]([C@@H]1O)N2C)OCO4 (stereo partly drawn) [Compound 104]

>  <ASSAYED_TARGET>
Myelo

>  <Toxicity Data Myelo>
1.93E-08

$$$$
